Entry source: the supplement of paper PMC11061612

- Tested on: NCI-H1793 (Lung Adenocarcinoma)
- method notes: combination Emax (second highest fraction inhibited in the dose matrix, 72 h); higher = more inhibition; extreme values may be limits of the assay
Measured combination Emax of individual entries
Reply: number alone, nothing else.

Past entries and their recorded results:
INSERT INTO results (compound, experimental_readout, assay_value) VALUES
  ('COc1nnc2ccc(N3CCC(c4ccc(OCCN5CCN(C)C(=O)[C@H]5C)cc4)CC3)nn12 [AZD5153] + Cc1c2c(nn1C)CSCc1cc(n(C)n1)CSc1cc(c3ccccc3c1)OCCCc1c(C(=O)O)n(C)c3c-2c(Cl)ccc13 [AZD5991] (first compound max 1 µM, 7x7, partner max 1 µM)', 'combination Emax', 0.288),
  ('NC1(C(=O)N[C@@H](CCO)c2ccc(Cl)cc2)CCN(c2ncnc3[nH]ccc23)CC1 [Capivasertib] + Cn1cnc2c(F)c(Nc3ccc(Br)cc3Cl)c(C(=O)NOCCO)cc21 [Selumetinib] (first compound max 10 µM, 7x7, partner max 10 µM)', 'combination Emax', 0.39),
  ('COc1nnc2ccc(N3CCC(c4ccc(OCCN5CCN(C)C(=O)[C@H]5C)cc4)CC3)nn12 [AZD5153] + C[C@@H]1COCCN1C2=NC(=NC(=C2)C3(CC3)[S@](=N)(=O)C)C4=C5C=CNC5=NC=C4 [AZD6738] (first compound max 1 µM, 7x7, partner max 10 µM)', 'combination Emax', 0.629);

Bench note, NCI-H1793 (Lung Adenocarcinoma): entry CN(C)CCCOc1ccc(-c2ccc3ncc4c(c3c2)n(C2CCOCC2)c(=O)n4C)cn1 [AZD0156] + C=CCn1c(=O)c2cnc(Nc3ccc(N4CCN(C)CC4)cc3)nc2n1-c1cccc(C(C)(C)O)n1 [AZD1775] (first compound max 1 µM, partner max 1 µM) , its combination Emax = 0.387

Bench note, NCI-H1793 (Lung Adenocarcinoma): entry C[C@@H](c1ccc2nccn2c1)n1nnc2ncc(-c3cnn(C)c3)nc21 [Savolitinib] + CN(CC[C@H](CSC1=CC=CC=C1)NC2=C(C=C(C=C2)S(=O)(=O)NC(=O)C3=CC=C(C=C3)N4CCC(CC4)[C@H](C5=CC=CC=C5C6=CC=C(C=C6)Cl)O)S(=O)(=O)C(F)(F)F)CCO [AZD4320] (first compound max 1 µM, 7x7, partner max 1 µM) , its combination Emax = 0.168

Bench note, NCI-H1793 (Lung Adenocarcinoma): entry CC1(C)CCC(CN2CCN(c3ccc(C(=O)NS(=O)(=O)c4ccc(NCC5CCOCC5)c([N+](=O)[O-])c4)c(Oc4cnc5[nH]ccc5c4)c3)CC2)=C(c2ccc(Cl)cc2)C1 [Venetoclax] + Cn1cnc2c(F)c(Nc3ccc(Br)cc3Cl)c(C(=O)NOCCO)cc21 [Selumetinib] (first compound max 1 µM, 7x7, partner max 3 µM) , its combination Emax = 0.199

Bench note, NCI-H1793 (Lung Adenocarcinoma): entry COc1nnc2ccc(N3CCC(c4ccc(OCCN5CCN(C)C(=O)[C@H]5C)cc4)CC3)nn12 [AZD5153] + CCN(CCO)CCCOc1ccc2c(Nc3cc(CC(=O)Nc4cccc(F)c4)[nH]n3)ncnc2c1 [AZD2811] (first compound max 1 µM, 7x7, partner max 1 µM) , its combination Emax = 0.278
